system: CCRIS mutagenicity, Ames/micronucleus/aberration tests; test: CCRIS mutagenicity studies; conditions: End Point: IN VITRO CHROMOSOMAL ABERRATIONS; Test System: CHL CELLS; Metabolic Activation: RAT, LIVER, S-9, SODIUM PHENOBARBITAL AND 5,6-BENZOFLAVONE
Active and inactive are the calls of the source. No rule for the calls is given here.
Lab note: assign the record to one of 1 (yes) (active), 0 (no) (inactive)

Molecule | Answer label
Cc1ccc(N)c(C)c1 | 1 (yes)

Any idea what this test logged for Nc1cc(Cl)ccc1[N+](=O)[O-] ? 1 (yes)

Try the molecule CC(=O)Nc1cc(N(CCOC(C)=O)CCOC(C)=O)ccc1N=Nc1ccc([N+](=O)[O-])cc1Cl 0 (no)

Try the molecule O=C(O)CBr 1 (yes)

Try the molecule Cc1ccc(S(=O)(=O)NN)cc1 1 (yes)

Try the molecule COc1cc(-c2ccc(N)c(OC)c2)ccc1N 1 (yes)
